Reference for the values: patent US9090593B2

- tested on: Pim-2 stably transfected into the U2OS human osteogenic sarcoma line (Homo sapiens, UniProt Q9P1W9)
- Construct: expressed in transfected cells; host or cells: U2OS human osteogenic sarcoma line
- Sequence (Q9P1W9 whole entry): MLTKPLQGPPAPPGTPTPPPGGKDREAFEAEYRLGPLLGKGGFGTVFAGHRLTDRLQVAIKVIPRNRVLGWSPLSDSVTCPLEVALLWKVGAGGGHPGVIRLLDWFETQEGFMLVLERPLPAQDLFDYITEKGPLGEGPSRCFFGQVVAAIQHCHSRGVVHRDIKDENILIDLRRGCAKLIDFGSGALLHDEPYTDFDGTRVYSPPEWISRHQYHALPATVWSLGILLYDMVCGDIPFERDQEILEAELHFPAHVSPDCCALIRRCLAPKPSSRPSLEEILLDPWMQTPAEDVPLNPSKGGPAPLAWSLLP
- assay comment: Pim cell assay, phospho-BAD normalized against total BAD, U2OS stably transfected with Pim-2; note: high dose 31.6 µM
- Format: cell-based
- condition label: U2OS cells stably transfected with Pim-2, phospho-BAD; high dose […]; read-out: Pim2_Cell_IC50
pIC50: −log10 of the molar value.
pIC50 values by entry
measurement label: pIC50

- NC1CCN(c2cncc(-c3n[nH]c4ccc(-c5cc([N+](=O)[O-])ccc5F)cc34)n2)CC1: < 4.50
- Nc1ncc(-c2ccc3[nH]nc(-c4cncc(N5CCC(N)CC5)n4)c3c2)cn1: < 4.50
- NC1CCN(c2cncc(-c3n[nH]c4ccc(-c5ccc6cc[nH]c6n5)cc34)n2)CC1: < 4.50
